EXPERIMENTAL TARGET: GST-Rok (full length) (Bacillus subtilis subsp. subtilis str. …, UniProt O34857 1-191)
Sequence: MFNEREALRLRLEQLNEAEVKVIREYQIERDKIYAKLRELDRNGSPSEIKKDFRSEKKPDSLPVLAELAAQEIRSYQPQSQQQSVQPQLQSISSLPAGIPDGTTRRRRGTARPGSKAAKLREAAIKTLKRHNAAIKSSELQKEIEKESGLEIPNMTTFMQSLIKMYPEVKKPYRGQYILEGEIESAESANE
ASSAY TEXT: protein binding microarray; high values mean tight binding
SETTINGS: protein: recombinant; tags: GST (pTH5325, pDEST15-Magic modified); dsDNA, one strand shown
Over roughly 33,000 sequences, “e-score” has its median near -0.037; the highest 2% begin near 0.34. Many of the other results were omitted from the sample, so the highest values are more common in it than they were.
The reader will find reported binding signal values listed item by item below.
Just so you know, I need the unit written after the number.

Some solved entries appear below for comparison.
ACTAGAGA
-0.0107 E-score
ATATTTTA
0.412 E-score
AGTAATTA
0.381 E-score
CGAACTAG
0.319 E-score
CATAATTC
0.126 E-score

Please examine the following record next.
Form field: reported binding signal of `CATGCGGC`
-0.125 E-score

* * *

binding signal for assorted sequences
EXPERIMENTAL TARGET: GST-Rok (full length) (Bacillus subtilis subsp. subtilis str. …, UniProt O34857 1-191)
Sequence: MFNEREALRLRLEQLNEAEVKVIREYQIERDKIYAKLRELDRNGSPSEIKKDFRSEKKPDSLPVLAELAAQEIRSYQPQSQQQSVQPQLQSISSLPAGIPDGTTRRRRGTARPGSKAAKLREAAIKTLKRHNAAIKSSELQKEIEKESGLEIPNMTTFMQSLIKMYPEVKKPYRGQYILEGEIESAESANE
ASSAY TEXT: protein binding microarray; high values mean tight binding
SETTINGS: protein: recombinant; tags: GST (pTH5325, pDEST15-Magic modified); dsDNA, one strand shown
Whole data set: some 33,000 sequences, median “e-score” near -0.037, cut for the highest 2% near 0.34. The list comes from a sample in which the highest values are over-represented; it also holds close analogues and randomly drawn sequences.
Numbers only; they are read as E-score.

Answered cases to consult:
GTATAAAC
0.16
ACCTACCA
0.248
CATATGAA
0.0706
ACATGTAC
0.358
ACTAATCA
0.154
CACAAGTA
0.183
CGTTCTGA
-0.0208
CTGGTAAC
0.176
AGCTATAG
0.283
ACATTTAC
0.313

What value of binding signal has been reported for the following sequence? `CACAAATA`
0.35

Need binding signal, item `AACAAACA`
0.0686

What value of measured binding signal is listed for `ACATATAT` ?
0.378

Using the record for `GCGAAGTA` , report its binding signal.
0.155

* * *

EXPERIMENTAL TARGET: GST-Rok (full length) (Bacillus subtilis subsp. subtilis str. …, UniProt O34857 1-191)
Sequence: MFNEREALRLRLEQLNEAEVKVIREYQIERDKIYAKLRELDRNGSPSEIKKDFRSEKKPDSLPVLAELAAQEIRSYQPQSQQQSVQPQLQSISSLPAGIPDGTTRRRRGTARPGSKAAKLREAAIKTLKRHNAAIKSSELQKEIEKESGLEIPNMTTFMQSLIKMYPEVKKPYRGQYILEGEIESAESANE
ASSAY TEXT: protein binding microarray; Rok is a gene silencer of Bacillus subtilis; high values mean tight binding
SETTINGS: protein: recombinant; tags: GST (pTH5325, pDEST15-Magic modified); dsDNA, one strand shown
In all, about 33,000 sequences were measured (“e-score”: median about -0.037, highest 2% from about 0.34 on). The entries come from a sample that favours the highest values as a whole.
Output yes for binding signal not less than 0.2 E-score; output no otherwise.

I'd appreciate it if you could say whether `GCTGGCAC` has binding signal at least equal to 0.2 E-score.
no

Answer whether binding signal of `GATAGTGA` is greater than or equal to 0.2 E-score.
no

Test whether the sequence `GAATGGGA` records binding signal of 0.2 E-score or higher.
no
